assay-target: Recombinant human liver GK1 (GST-GK) (Homo sapiens)
Construct: made in house; host or cells: E. coli
Sequence (P35557 1-466 isoform P35557-2): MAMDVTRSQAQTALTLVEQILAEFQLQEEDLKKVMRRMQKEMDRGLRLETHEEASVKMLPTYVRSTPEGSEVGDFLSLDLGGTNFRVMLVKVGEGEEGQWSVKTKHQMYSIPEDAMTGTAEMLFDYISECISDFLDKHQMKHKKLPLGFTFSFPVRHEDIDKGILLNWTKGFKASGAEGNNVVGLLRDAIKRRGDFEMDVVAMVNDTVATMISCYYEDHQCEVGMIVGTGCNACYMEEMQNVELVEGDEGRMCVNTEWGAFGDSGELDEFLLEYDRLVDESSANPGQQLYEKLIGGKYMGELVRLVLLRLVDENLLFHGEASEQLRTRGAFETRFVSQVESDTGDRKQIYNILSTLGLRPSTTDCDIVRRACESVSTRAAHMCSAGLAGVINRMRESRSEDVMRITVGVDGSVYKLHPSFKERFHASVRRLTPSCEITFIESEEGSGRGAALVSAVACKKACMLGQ
measurement-description: In vitro glucokinase activity, G6PDH-coupled spectrophotometric assay
Assay type: biochemical
experimental-conditions: 5 mM D-glucose, 30° C., pH 7.1
# cutoff 5 µM applies to SC1.5 (concentration of activator that produced a 50% increase in the activity of GK); >= gives Criterion met, < gives Criterion not met

Use the examples below as a reference point.
{"compound": "CC(C)CC(C(=O)Nc1cnccn1)N1C(=O)Cc2cc(Br)ccc21 (centres unmarked) [Example 75]", "class-name": "Criterion met"}
{"compound": "Cc1ccc2c(c1)N(C(CC1CCCC1)C(=O)Nc1cnccn1)C(=O)C2 (centres unmarked) [Example 130]", "class-name": "Criterion not met"}
{"compound": "CC(C)CC(C(=O)Nc1nccs1)N1C(=O)Cc2cc(OC(F)(F)F)ccc21 (centres unmarked) [Example 41]", "class-name": "Criterion not met"}

Task item: Could you please find out whether O=C(Nc1nccs1)C(CC1CCCC1)N1C(=O)Cc2cc(Cl)ccc21 (centres unmarked) [Example 98] has SC1.5 (concentration of activator that produced a 50% increase in the activity of GK) that meets 5 µM or exceeds it?
Reply: Criterion not met

Task item: Could you please find out whether Cc1ccc2c(c1)C(=O)C(=O)N2C(CC1CCCC1)C(=O)Nc1cnccn1 (centres unmarked) [Example 76] has SC1.5 (concentration of activator that produced a 50% increase in the activity of GK) that meets 5 µM or exceeds it?
Reply: Criterion met

Task item: Could you please find out whether O=C1C(=O)N(C(CC2CCCC2)C(=O)Nc2nccs2)c2cc(Cl)ccc21 (centres unmarked) [Example 117] has SC1.5 (concentration of activator that produced a 50% increase in the activity of GK) that meets 5 µM or exceeds it?
Reply: Criterion not met

Data provenance: patent US20120142705A1
